- Target Or System: the molecule itself
- Experiment: SEC; analytical SEC (Superdex 200 5/150), 20 µM protein with 200 µM GDP, 300 µM AlCl3, 10 mM NaF (GDP•AlFx); 50 mM Tris-HCl pH 7.9, 150 mM NaCl, 5 mM MgCl2
Result Type: stoichiometry N

isolated LG domain of GBP1 Δ207-216 (domain or fragment, human, UniProt P32455 1-317, looked up, LG domain of GBP1, human; stop codon in place of A318; also called α4’ variant LG domain construct; source: E. coli, pQE-80L, purified (Ni Sepharose HP, Superdex 200)) MASEIHMTGPMCLIENTNGRLMANPEALKILSAITQPMVVVAIVGLYRTGKSYLMNKLAGKKKGFSLGSTVQSHTKGIWMWCVPHPKKPGHILVLLDTEGLGDVEKGDNQNDSWIFALAVLLSSTFVYNSIGTINQQAMDQLYYVTELTHRIRSKSSPDENENEVEDSADFVSFFPDFVWTLRDFSLDLEADGQPLTPDEYLTYSLGGGSETFNLPRLCIRKFFPKKKCFVFDRPVHRRKLAQLEKLQDEELDPEFVQQVADFCSYIFSNSKTKTLSGGIQVNGPRLESLVLTYVNAISSGDLPCMENAVL = 2
isolated LG domain of GBP1, wild-type (domain or fragment, human, UniProt P32455 1-317, looked up, large GTPase (LG) domain of GBP1, human; stop codon in place of A318 (primer A318*); also called wild-type LG domain; WT; source: E. coli, pQE-80L, purified (Ni Sepharose HP, Superdex 200)) MASEIHMTGPMCLIENTNGRLMANPEALKILSAITQPMVVVAIVGLYRTGKSYLMNKLAGKKKGFSLGSTVQSHTKGIWMWCVPHPKKPGHILVLLDTEGLGDVEKGDNQNDSWIFALAVLLSSTFVYNSIGTINQQAMDQLYYVTELTHRIRSKSSPDENENEVEDSADFVSFFPDFVWTLRDFSLDLEADGQPLTPDEYLTYSLKLKKGTSQKDETFNLPRLCIRKFFPKKKCFVFDRPVHRRKLAQLEKLQDEELDPEFVQQVADFCSYIFSNSKTKTLSGGIQVNGPRLESLVLTYVNAISSGDLPCMENAVL = 2

input: What value of stoichiometry N has been reported for the following protein? isolated LG domain of GBP1 Δ207-213 (domain or fragment, human, UniProt P32455 1-317, looked up, LG domain of GBP1, human; stop codon in place of A318; also called α4’ variant LG domain construct; source: E. coli, pQE-80L, purified (Ni Sepharose HP, Superdex 200)) MASEIHMTGPMCLIENTNGRLMANPEALKILSAITQPMVVVAIVGLYRTGKSYLMNKLAGKKKGFSLGSTVQSHTKGIWMWCVPHPKKPGHILVLLDTEGLGDVEKGDNQNDSWIFALAVLLSSTFVYNSIGTINQQAMDQLYYVTELTHRIRSKSSPDENENEVEDSADFVSFFPDFVWTLRDFSLDLEADGQPLTPDEYLTYSLGGGSGGGSQKDETFNLPRLCIRKFFPKKKCFVFDRPVHRRKLAQLEKLQDEELDPEFVQQVADFCSYIFSNSKTKTLSGGIQVNGPRLESLVLTYVNAISSGDLPCMENAVL
output: 2

input: Fill in: stoichiometry N of isolated LG domain of GBP1 Δ207-223 (domain or fragment, human, UniProt P32455 1-317, looked up, LG domain of GBP1, human; stop codon in place of A318; also called α4’ variant LG domain construct; source: E. coli, pQE-80L, purified (Ni Sepharose HP, Superdex 200)) MASEIHMTGPMCLIENTNGRLMANPEALKILSAITQPMVVVAIVGLYRTGKSYLMNKLAGKKKGFSLGSTVQSHTKGIWMWCVPHPKKPGHILVLLDTEGLGDVEKGDNQNDSWIFALAVLLSSTFVYNSIGTINQQAMDQLYYVTELTHRIRSKSSPDENENEVEDSADFVSFFPDFVWTLRDFSLDLEADGQPLTPDEYLTYSLGGGSLCIRKFFPKKKCFVFDRPVHRRKLAQLEKLQDEELDPEFVQQVADFCSYIFSNSKTKTLSGGIQVNGPRLESLVLTYVNAISSGDLPCMENAVL is ___
output: 2

Ref: paper PMC10897159
